Tested on: recombinant SARS-CoV-2 Omicron BA.2 RBD
Assay comment: BLI
pKd: −log10 of the molar value.

Binder: ADI-75859 (antibody, V domains shown) VH: QVQLVQSGGGVGQPGRSLRLSCAASGFTFGHYGMHWVRQAPGKGLEWVAAIIYDGSDKQYADSVKGRFTISRDNSKNTVYLQMNSLRPEDTAIYFCAKLGGLYCSGGNCFSGYFDYWGQGTLVTVSS VL: ETTLTQSPSSLSASVGDRVTITCRASQGISNSLAWYQQKPGKAPKLLLYAASTLESGVPSRFSGSGSGTDFTLTIASLQPEDFATYYCQQYYSSVRFTFGQGTILDLN
Relational operator: =
pKd: 8.63
//
Binder: ADI-75738 (antibody, V domains shown) VH: QVQLQQWGAGLLKPSETLSLTCGVHDGAFSGYFWNWIRQSPVKGLEWIGEVTHSGNTNYNPSLKSRVTMSVDASKNEFSLNLTSVTAADTAVYYCARGDFYSTRLAFDVWGQGSMVTVSS VL: EIVLTQSPATLSLSPGERATLSCRASQSVSTYLAWYQQRPGQAPRLLIYDASNRATGIPARFSGSGSETDFTLTISSLEPEDFAVYYCQQRSNWLTFGGGTKVEIK
Relational operator: =
pKd: 8.80
//
Binder: ADI-75700 (antibody, V domains shown) VH: QVQLQQWGAGLLKPSETLSLTCGVYDGSFSDYFWNWIRQPPGKGLEWIGELTHTGSTNYNPSLKSRVTILADTSKSQFSLNLSSVTAADTAVYYCARGDFYSTRLAFDLWGQGTTVTVSS VL: EIALTQSPATLSLSPGERATLSCRASQSVSTYLAWYQQKPGQAPRLLIYDASKRATGIPARFNGSGSGTDFTLTISSLEPEDFAVYYCQQRSTWPTFGGGTKVDIK
Relational operator: =
pKd: 8.60
//
Binder: ADI-75754 (antibody, V domains shown) VH: QVQLVQSGGDLVQPGGSLRLSCVASGFTFSNYEMNWVRQGPGKGLEWISYISTSGSTYYYADSVKGRFTISRDNARNSLYLQMDSLRVEDTAIYYCLTHPQPQYVRPTQVVWFDPWGQGTLVTVSS VL: EMTMTQSPGTLSLSPGERATLSCRASESVSSEYLAWHQQRPGQAPRLLIYGASSRPTGIPDRFSGSGSGTDFTLTISRLEPEDFAVYYCHQFASAPITFGQGTRLEIK
Relational operator: <
pKd: 6.52
